The values you see were collected from patent US20240182563A1.

Biological target: T1, human CNTN4-rabbit Fc (human; rabbit, UniProt Q8IWV2 19-1000, limits assumed)
T1 construct: not shown: rabbit Fc
T1 sequence (looked up): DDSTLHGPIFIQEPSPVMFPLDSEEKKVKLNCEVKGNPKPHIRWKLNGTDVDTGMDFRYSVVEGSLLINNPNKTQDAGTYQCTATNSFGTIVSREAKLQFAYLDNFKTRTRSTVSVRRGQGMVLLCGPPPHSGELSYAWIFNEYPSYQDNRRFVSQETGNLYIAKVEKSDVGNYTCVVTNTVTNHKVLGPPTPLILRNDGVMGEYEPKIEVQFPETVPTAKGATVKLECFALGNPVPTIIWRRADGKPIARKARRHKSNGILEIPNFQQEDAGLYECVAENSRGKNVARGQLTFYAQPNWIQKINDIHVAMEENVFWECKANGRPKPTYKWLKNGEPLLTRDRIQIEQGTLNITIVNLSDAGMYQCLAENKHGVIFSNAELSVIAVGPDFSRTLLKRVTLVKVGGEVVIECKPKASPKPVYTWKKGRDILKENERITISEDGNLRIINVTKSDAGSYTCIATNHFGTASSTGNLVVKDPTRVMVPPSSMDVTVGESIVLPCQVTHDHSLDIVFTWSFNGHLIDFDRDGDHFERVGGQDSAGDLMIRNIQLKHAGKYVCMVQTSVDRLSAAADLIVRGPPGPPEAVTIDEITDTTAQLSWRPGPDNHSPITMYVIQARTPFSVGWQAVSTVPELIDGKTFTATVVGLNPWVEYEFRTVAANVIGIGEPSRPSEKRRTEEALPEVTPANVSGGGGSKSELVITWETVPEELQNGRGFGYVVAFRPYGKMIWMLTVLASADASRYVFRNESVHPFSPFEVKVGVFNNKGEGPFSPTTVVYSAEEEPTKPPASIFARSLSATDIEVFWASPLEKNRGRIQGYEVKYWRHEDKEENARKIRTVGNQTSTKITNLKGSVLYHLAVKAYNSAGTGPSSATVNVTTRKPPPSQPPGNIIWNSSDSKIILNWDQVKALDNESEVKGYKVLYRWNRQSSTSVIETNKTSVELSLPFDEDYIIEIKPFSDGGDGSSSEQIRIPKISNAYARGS
Experiment: ELISA, plate coated with antigen-rabbit Fc, anti-human kappa-HRP
Test readout: EC50 (nM)
I only need the number, in nM, no unit after it.

Recorded EC50, per entry:
query: Return reported EC50; argument: anti-CNTN4 scFv-hCk S134 (scFv, part only; not given: linker and kappa constant region, V domains shown, not shown: another chain or arm of the molecule; a dimerising Fc or GST; small tags and cut ends) VL: ALTQPSSVSANPGETVKITCSGGTYSYGNYYYGWYQQKSPGSAPVTVIYNNNNRPSDIPSRFSGSGSGSTGTLTITGVRAEDEAVYYCGGYDGSTDVFGAGTTLTVL VH: AVTLDESEGGLQTPGGALSLVCKASGFTFSSFNMFWVRQAPGKGLEYVAEISGGGGSTWYAPAVKGRATISRDNGQSTVRLQLNNLRAEDTGTYYCAKSADTWSYGAATIDAWGHGTEVIVSS
result: 0.75

query: Next binder: anti-CNTN4 scFv-hCk S138 (scFv, part only; not given: linker and kappa constant region, V domains shown, not shown: another chain or arm of the molecule; a dimerising Fc or GST; small tags and cut ends) VL: ALTQPSSVSANPGETVNITCSGGGSYAGSYYYGWYQQKAPGSAPVTVIYDSTNRPSNIPSRFSGSLSGSTNTLTITGVRAEDEAVYYCGGYDGSTDVFGAGTTLTVL VH: AVTLDESEGGLQTPGGALSLVCKASGFTFSSFNMFWVRQAPGKGLEYVAEISGGGGSTWYAPAVKGRATISRDNGQSTVRLQLNNLRAEDTGTYYCAKSADTWSYGAATIDAWGHGTEVIVSS
result: 2.37

Alright, here's another binder for you.
query: Return reported EC50; argument: anti-CNTN4 scFv-hCk S6 (scFv, part only; not given: linker and kappa constant region, not shown: a dimerising Fc or GST) scFv, part: ALTQPSSVSANPGETVKITCSGGSGNYGWYQQKSPGSAPVTVIYNGNNRPSDIPSRFSGSGSGSTNTLAITGVQAEDEAVYFCGGYDGTIDAFGAGTTLTVLAVTLDESEGGLQTPGGALSLVCKASGFTFSSFNMFWVRQAPGKGLEYVAEISGGGGSTWYAPAVKGRATISRDNGQSTVRLQLNNLRAEDTGTYYCAKSADTWSYGAATIDAWGHGTEVIVSS
result: 0.37
